- Assayed System: WzcCDΔC (Escherichia coli, UniProt P76387, K540M)
- Sequence (P76387 447-704 K540M limits assumed): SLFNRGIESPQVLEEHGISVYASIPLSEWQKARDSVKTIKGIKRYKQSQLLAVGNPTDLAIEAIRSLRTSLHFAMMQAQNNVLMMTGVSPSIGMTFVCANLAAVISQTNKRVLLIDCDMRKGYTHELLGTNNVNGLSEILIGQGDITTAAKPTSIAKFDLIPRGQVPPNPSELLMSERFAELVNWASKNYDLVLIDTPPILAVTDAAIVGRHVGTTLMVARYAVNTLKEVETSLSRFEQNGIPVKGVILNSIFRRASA
- Test Details: isothermal titration calorimetry, one-site model
Reported Metric: Kd (nM)
Give bare numbers, in nM.

Query block: Quickly give me recorded Kd for Nc1ncnc2c1ncn2[C@@H]1O[C@H](COP(=O)(O)OP(=O)(O)O)[C@@H](O)[C@H]1O
Result block: 500

---

- Assayed System: WzcCDΔC (Escherichia coli)
- Test Details: isothermal titration calorimetry, one-site model
Reported Metric: Kd (nM)
Answers are plain numbers, in nM.

Query block: Report value: Kd, system: WzcCDΔC (Escherichia coli), molecule: Nc1ncnc2c1ncn2[C@@H]1O[C@H](COP(=O)(O)OP(=O)(O)O)[C@@H](O)[C@H]1O
Result block: 2600
